Target: BRAF V600E (Homo sapiens, UniProt P15056+Q96SW2, V600E)
Construct: knock-in of the HiBiT tag to the endogenous BRAF V600E locus; host or cells: A375.10 (A375 clonal line, CRISPR HiBiT knock-in at the endogenous BRAF V600E locus)
Sequence (P15056 whole entry V600E): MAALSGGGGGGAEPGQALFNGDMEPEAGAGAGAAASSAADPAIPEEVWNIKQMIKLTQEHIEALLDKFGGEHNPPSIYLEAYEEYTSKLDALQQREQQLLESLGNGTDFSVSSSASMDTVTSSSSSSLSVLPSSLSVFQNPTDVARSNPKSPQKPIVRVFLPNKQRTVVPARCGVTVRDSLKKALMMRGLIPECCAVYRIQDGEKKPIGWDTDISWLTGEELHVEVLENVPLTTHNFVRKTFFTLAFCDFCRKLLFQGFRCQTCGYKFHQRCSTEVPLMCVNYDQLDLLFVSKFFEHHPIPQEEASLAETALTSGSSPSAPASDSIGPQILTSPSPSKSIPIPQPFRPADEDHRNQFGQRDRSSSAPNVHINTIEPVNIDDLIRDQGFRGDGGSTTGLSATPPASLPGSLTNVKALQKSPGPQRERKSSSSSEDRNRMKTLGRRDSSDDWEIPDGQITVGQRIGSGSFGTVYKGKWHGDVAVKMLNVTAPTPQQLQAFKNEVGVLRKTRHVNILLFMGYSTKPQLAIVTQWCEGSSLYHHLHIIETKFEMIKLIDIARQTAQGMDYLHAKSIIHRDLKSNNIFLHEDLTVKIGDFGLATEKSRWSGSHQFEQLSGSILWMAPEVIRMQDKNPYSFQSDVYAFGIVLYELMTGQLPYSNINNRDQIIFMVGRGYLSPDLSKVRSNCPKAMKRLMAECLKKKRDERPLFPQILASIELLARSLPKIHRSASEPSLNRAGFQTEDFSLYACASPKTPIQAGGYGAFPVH
Sequence (Q96SW2 whole entry): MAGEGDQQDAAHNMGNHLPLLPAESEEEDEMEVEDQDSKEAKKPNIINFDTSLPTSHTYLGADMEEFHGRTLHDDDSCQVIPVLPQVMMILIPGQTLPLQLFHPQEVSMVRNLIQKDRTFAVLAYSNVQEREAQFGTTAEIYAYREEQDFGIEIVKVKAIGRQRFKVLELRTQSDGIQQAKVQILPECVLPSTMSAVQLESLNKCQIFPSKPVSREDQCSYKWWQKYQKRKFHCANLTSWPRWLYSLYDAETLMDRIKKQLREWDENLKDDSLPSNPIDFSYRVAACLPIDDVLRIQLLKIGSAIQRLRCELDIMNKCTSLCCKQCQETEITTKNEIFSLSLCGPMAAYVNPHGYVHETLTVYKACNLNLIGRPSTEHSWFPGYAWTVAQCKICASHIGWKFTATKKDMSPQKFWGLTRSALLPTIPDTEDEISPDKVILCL
Sequence (Q16531 whole entry partner): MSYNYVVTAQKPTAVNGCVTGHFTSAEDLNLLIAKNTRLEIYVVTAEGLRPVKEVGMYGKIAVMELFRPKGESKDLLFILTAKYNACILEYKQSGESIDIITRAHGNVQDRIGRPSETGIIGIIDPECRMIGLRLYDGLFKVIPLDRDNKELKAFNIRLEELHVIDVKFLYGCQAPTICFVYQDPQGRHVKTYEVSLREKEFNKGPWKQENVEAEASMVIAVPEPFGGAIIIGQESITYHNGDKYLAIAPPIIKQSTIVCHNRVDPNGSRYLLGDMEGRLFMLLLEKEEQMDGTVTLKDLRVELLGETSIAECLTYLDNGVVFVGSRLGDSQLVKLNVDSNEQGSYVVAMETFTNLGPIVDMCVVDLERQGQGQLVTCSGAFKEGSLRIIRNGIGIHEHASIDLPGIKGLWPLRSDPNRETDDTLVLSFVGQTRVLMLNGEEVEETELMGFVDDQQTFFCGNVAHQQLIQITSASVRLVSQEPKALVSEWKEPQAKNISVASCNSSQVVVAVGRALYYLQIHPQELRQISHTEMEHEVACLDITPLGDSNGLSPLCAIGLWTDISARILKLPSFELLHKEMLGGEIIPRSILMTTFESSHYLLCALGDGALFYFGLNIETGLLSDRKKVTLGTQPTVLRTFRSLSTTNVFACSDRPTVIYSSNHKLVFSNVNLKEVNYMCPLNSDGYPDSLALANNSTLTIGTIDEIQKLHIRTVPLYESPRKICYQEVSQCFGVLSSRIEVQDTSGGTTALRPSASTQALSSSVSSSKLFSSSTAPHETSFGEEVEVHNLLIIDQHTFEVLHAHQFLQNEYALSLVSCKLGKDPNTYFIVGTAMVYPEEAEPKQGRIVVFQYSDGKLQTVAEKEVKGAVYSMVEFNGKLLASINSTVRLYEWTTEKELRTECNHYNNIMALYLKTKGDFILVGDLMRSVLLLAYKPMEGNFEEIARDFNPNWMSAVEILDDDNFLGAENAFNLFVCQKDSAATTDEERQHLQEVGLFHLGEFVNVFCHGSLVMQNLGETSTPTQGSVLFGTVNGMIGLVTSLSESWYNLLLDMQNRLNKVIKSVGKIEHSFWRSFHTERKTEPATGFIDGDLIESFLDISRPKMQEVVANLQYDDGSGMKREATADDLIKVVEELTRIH
Test: BRAF V600E HiBiT Degradation Assay
Format: cell-based
Conditions: A375.10 cells, HiBiT, BRAF V600E, 24 hours; read-out: HiBiT-Degradation A375.10 BRAF 24 hours Emax
Readout: Emax

compound="CCN(C)S(=O)(=O)Nc1ccc(F)c(Oc2ccc3ncc(C4CC5(CCN(C6CC7(C6)CN(c6cc8c(cc6F)c(N6CCC(=O)NC6=O)nn8C)C7)CC5)C4)nc3c2)c1C#N (stereo not drawn) [Compound 177]" readout=Emax result="< 50%"
compound="CO[C@H]1CCN(S(=O)(=O)Nc2ccc(F)c(Oc3ccc4ncn([C@H]5COC6(CCN(C7CC8(C7)CN(c7cc9c(cc7F)c(N7CCC(=O)NC7=O)nn9C)C8)CC6)C5)c(=O)c4c3)c2C#N)C1 [Compound 157]" readout=Emax result="< 50%"
compound="CO[C@@H]1CCN(S(=O)(=O)Nc2ccc(F)c(Oc3ccc4ncn([C@H]5COC6(CCN(C7CCC(c8cc9c(cc8F)c(N8CCC(=O)NC8=O)nn9C)CC7)CC6)C5)c(=O)c4c3)c2C#N)C1 (single isomer, unassigned) [Compound 100]" readout=Emax result="< 50%"
compound="CCN(C)S(=O)(=O)Nc1ccc(F)c(Oc2ccc3ncn([C@H]4COC5(CCN(C6CC7(C6)CN(c6ccc(NC8CCC(=O)NC8=O)cc6F)C7)CC5)C4)c(=O)c3c2)c1C#N (stereo partly drawn) [Compound 35]" readout=Emax result="< 50%"
compound="CCN(C)S(=O)(=O)Nc1ccc(F)c(Oc2ccc3ncc([C@H]4COC5(CCN(C6CCC(c7ccc(NC8CCC(=O)NC8=O)cc7F)CC6)CC5)C4)nc3c2)c1C#N (single isomer, unassigned) [Compound 58]" readout=Emax result="< 50%"
compound="CCN(C)S(=O)(=O)Nc1ccc(F)c(Oc2ccc3ncn([C@H]4COC5(CCN(C6CCC(c7cc8c(cc7F)c(N7CCC(=O)NC7=O)nn8C)CC6O)CC5)C4)c(=O)c3c2)c1C#N (single isomer, unassigned) [Compound 43]" readout=Emax result="< 50%"
compound="CC(C)S(=O)(=O)Nc1ccc(F)c(Oc2ccc3ncn([C@H]4COC5(CCN(C6CC7(C6)CN(c6cc8c(cc6F)c(N6CCC(=O)NC6=O)nn8C)C7)CC5)C4)c(=O)c3c2)c1C#N [Compound 134]" readout=Emax result="< 50%"
compound="CCN(C)S(=O)(=O)Nc1ccc(F)c(Oc2ccc3ncn([C@H]4COC5(CCN(C6CCC(c7cc8c(cc7F)c(N7CCC(=O)NC7=O)nn8C)CC6)CC5)C4)c(=O)c3c2F)c1C#N (single isomer, unassigned) [Compound 41]" readout=Emax result="< 50%"
compound="CCN(C)S(=O)(=O)Nc1ccc(F)c(Oc2ccc3ncn([C@H]4COC5(CCN(CC6(O)CCN(c7cc8c(cc7F)c(N7CCC(=O)NC7=O)nn8C)CC6)CC5)C4)c(=O)c3c2)c1C#N [Compound 230]" readout=Emax result="< 50%"

* * *

Experiment: Pharmacokinetics in female BALB/c nude mice bearing A375 xenografts, 1 day dosing (PK and PD study): plasma, tumor and brain concentrations, AUC
Assay type: in vivo
Settings: mouse, brain, po, 5 mg/kg, 5 mg/kg p.o. BID × 1 day; post 2nd dose; 10 h; read-out: Mean Concentration in Brain ± SEM
Readout: concentration at 10 h (ng/g)

compound="CCN(C)S(=O)(=O)Nc1ccc(F)c(Oc2ccc3ncn(C4CC5(CCN(C6CC7(C6)CN(c6cc8c(cc6F)c(N6CCC(=O)NC6=O)nn8C)C7)CC5)C4)c(=O)c3c2)c1C#N (stereo not shown) [Compound 141]" numeric_readout=13.1
